- System: Rattus norvegicus
- experiment summary: Antiinflammatory activity assessed by inhibition of carrageenan-induced edema in rats […]
- Assay type: functional
Returns 1.0 if the recorded ED30 is greater than or equal to 10 mg/kg, and 0.0 otherwise.

Quick check, ED30 >= 10 mg/kg? CSc1cc2n(c1C(=O)c1ccc(Br)cc1)CCC2C(=O)O (stereo not given)
1.0

Quick check, ED30 >= 10 mg/kg? CCOc1ccc(C(=O)c2c(SC)cc(CC(=O)O)n2C)cc1
0.0

Quick check, ED30 >= 10 mg/kg? CCc1ccc(C(=O)c2c(SC)cc3n2CCC3C(=O)O)cc1 (stereo not given)
1.0

Quick check, ED30 >= 10 mg/kg? CSc1cc2n(c1C(=O)c1ccc(F)cc1)CCC2C(=O)O (stereo not given)
0.0

Quick check, ED30 >= 10 mg/kg? CSc1cc2n(c1C(=O)c1ccc(C3CC3)cc1)CCC2C(=O)O (stereo not given)
1.0

Quick check, ED30 >= 10 mg/kg? CSc1cc(CC(=O)O)n(C)c1C(=O)c1ccc(Cl)cc1
0.0

Quick check, ED30 >= 10 mg/kg? C=Cc1ccc(C(=O)c2c(SC)cc3n2CCC3C(=O)O)cc1 (stereo not given)
1.0

Quick check, ED30 >= 10 mg/kg? CCCCC1C(=O)N(c2ccccc2)N(c2ccccc2)C1=O [PHENYLBUTAZONE]
1.0

---

- Species: Rattus norvegicus
- experiment summary: Chronic gastrointestinal erosive activity in rats
- Assay type: functional
- experimental setup: read-out: MED
Attribute: minimal effective dose
Give the value, in units of mg/kg, as a plain number.

See these solved cases before continuing.
| compound | endpoint | meas value |
| --- | --- | --- |
| O=C(c1ccccc1)c1ccc2n1CCC2C(=O)O (stereo unspecified) | minimal effective dose | 5 |
| CSc1cc2n(c1C(=O)c1ccc(C)cc1)CCC2C(=O)O (stereo unspecified) | minimal effective dose | 19 |
| CSc1cc2n(c1C(=O)c1ccc(Cl)cc1)CCC2C(=O)O (stereo unspecified) | minimal effective dose | 1.5 |

With those in mind, consider the next compound.
// returns reported minimal effective dose for input Cc1cc(CC(=O)O)n(C)c1C(=O)c1ccc(Cl)cc1 [ZOMEPIRAC]
10

---

- experiment summary: Therapeutic ratio of MED GI erosion to that of ED30 of rat paw
- Format: ADME
// returns 0.0 unless selectivity ratio is strictly below 20, in which case 1.0

A selection of reference data follows.
| molecule | answer label |
| --- | --- |
| CSc1cc2n(c1C(=O)c1ccc(C)cc1)CCC2C(=O)O (stereo unspecified) | 1.0 |
| CSc1cc2n(c1C(=O)c1ccc(Cl)cc1)CCC2C(=O)O (stereo unspecified) | 1.0 |
| Cc1cc(CC(=O)O)n(C)c1C(=O)c1ccc(Cl)cc1 [ZOMEPIRAC] | 1.0 |
| O=C(c1ccccc1)c1ccc2n1CCC2C(=O)O (stereo unspecified) | 1.0 |

Hello, I'm reviewing records and need to know if selectivity ratio of COc1ccc2cc([C@H](C)C(=O)O)ccc2c1 is below 20. Could you check?
0.0

---

Attribute: ED30
- System: Rattus norvegicus
- experiment summary: Antiinflammatory activity assessed by inhibition of carrageenan-induced edema in rats […]
- Assay type: functional
Give the value, in units of mg/kg, as a plain number.

See these solved cases before continuing.
| molecule | ED30, mg/kg |
| --- | --- |
| CSc1ccc(C(=O)c2c(SC)cc3n2CCC3C(=O)O)cc1 (configuration not stated) | 10 |
| CSc1cc2n(c1C(=O)c1ccc(C(F)(F)F)cc1)CCC2C(=O)O (configuration not stated) | 15 |
| CSc1cc(CC(=O)O)n(C)c1C(=O)c1ccccc1 | 1 |

// returns reported ED30 for input CCCc1ccc(C(=O)c2c(SC)cc3n2CCC3C(=O)O)cc1 (configuration not stated)
2.5

// returns reported ED30 for input CSc1cc(CC(=O)O)n(C)c1C(=O)c1ccc(F)cc1
0.5

// returns reported ED30 for input CSc1cc(CC(=O)O)n(C)c1C(=O)c1ccc(C2CC2)cc1
10

// returns reported ED30 for input CCCc1ccc(C(=O)c2c(SC)cc(CC(=O)O)n2C)cc1
0.2

// returns reported ED30 for input CCOc1ccc(C(=O)c2c(SC)cc3n2CCC3C(=O)O)cc1 (configuration not stated)
4

---

- System: Rattus norvegicus
- experiment summary: Antiinflammatory activity assessed by inhibition of carrageenan-induced edema in rats […]
- Type: functional
Attribute: ED30

See these solved cases before continuing.
| compound | endpoint | meas value |
| --- | --- | --- |
| CSc1cc2n(c1C(=O)c1ccc(C3CCCCC3)cc1)CCC2C(=O)O (centres undefined) | ED30 | < 1 mg/kg |
| CSc1cc2n(c1C(=O)c1ccc(OC(C)C)cc1)CCC2C(=O)O (centres undefined) | ED30 | < 1 mg/kg |
| CS(=O)(=O)c1cc2n(c1C(=O)c1ccc(Br)cc1)CCC2C(=O)O (centres undefined) | ED30 | < 1 mg/kg |

With those in mind, consider the next compound.
// returns reported ED30 for input COc1ccc(C(=O)c2c(SC)cc3n2CCC3C(=O)O)cc1 (centres undefined)
< 10 mg/kg
